Biological target: Tyrosine-protein kinase Blk (Homo sapiens)
Sequence (P51451 whole entry): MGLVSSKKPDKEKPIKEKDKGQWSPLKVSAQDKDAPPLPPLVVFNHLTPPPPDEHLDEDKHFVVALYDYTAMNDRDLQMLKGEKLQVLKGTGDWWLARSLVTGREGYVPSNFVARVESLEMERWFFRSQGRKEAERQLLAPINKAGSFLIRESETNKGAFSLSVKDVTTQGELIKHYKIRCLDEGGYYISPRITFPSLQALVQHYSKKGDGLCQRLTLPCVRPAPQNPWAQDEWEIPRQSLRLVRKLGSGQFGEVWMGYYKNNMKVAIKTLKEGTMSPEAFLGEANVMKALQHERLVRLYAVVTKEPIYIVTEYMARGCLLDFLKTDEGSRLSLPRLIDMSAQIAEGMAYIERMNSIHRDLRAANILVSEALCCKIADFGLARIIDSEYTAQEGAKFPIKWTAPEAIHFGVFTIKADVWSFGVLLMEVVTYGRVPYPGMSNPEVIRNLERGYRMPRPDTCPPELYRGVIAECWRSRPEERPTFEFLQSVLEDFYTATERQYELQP
pIC50: −log10 of the molar value.

Structure as smiles	pIC50
C=CC(=O)Nc1ccc2ncnc(Nc3cccc(Br)c3)c2c1	5.26

###

Each entry below lists one item and its recorded pIC50 value.
Target: Tyrosine-protein kinase BTK (Homo sapiens)
Sequence (Q06187 whole entry): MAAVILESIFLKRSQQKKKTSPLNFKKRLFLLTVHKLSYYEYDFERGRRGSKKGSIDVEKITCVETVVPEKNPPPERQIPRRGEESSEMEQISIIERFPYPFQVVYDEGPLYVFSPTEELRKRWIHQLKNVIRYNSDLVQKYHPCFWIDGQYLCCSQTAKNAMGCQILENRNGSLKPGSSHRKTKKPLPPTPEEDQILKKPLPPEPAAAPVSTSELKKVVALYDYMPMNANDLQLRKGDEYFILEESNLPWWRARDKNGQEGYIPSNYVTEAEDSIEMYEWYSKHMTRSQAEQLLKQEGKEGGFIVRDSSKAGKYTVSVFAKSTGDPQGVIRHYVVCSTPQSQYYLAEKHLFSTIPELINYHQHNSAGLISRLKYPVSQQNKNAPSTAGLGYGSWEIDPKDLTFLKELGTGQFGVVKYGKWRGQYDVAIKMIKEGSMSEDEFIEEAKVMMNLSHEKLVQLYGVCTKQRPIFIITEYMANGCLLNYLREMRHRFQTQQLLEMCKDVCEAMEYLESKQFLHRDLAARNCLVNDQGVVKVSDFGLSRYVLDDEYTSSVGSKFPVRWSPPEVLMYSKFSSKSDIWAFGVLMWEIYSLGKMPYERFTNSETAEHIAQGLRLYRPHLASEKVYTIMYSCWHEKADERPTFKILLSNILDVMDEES
pIC50: −log10 of the molar value.

Molecule	pIC50
C=CC(=O)Nc1ccc2ncnc(Nc3cccc(Br)c3)c2c1	5.23
C=CC(=O)Nc1cc2c(Nc3ccc(F)c(Cl)c3)ncnc2cc1OCCCN1CCOCC1 [CANERTINIB]	6.73
